// provenance: paper PMC6151531

- targetOfAssay: MMP-7 (Homo sapiens, UniProt P09237)
- Sequence (P09237 95-267): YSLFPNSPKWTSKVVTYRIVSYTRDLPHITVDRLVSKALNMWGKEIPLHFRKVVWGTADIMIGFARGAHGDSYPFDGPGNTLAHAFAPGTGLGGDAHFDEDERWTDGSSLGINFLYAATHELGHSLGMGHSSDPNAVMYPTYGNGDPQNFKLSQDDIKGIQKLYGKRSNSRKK
- assayExplanation: MMP-7 FRET peptide enzyme assay (single dose 10 μM and IC50)
- runConditions: read-out: % Activity MMP-7
Lab note: compare activity at 10 µM against 90%. Equal or greater, write MET. Smaller, write NOT MET.

INSERT INTO measurements (compound, category) VALUES
  ('O=C(O)CCCOc1ccc(CC(=O)Nc2ccc3c(c2)C(=O)N(Cc2ccc(F)cc2)C3=O)cc1 [Compound 14l]', 'NOT MET'),
  ('CN1C(=O)c2ccc(NC(=O)Cc3ccc(OCCCCC(=O)O)cc3)cc2C1=O [Compound 14a]', 'MET'),
  ('O=C(O)CCOc1ccc(CC(=O)Nc2ccc3c(c2)C(=O)N(Cc2ccc(F)cc2)C3=O)cc1 [Compound 14k]', 'MET'),
  ('O=C(O)CCCCCCOc1ccc(CC(=O)Nc2ccc3c(c2)C(=O)N(Cc2ccccc2)C3=O)cc1 [Compound 14g]', 'NOT MET');

Qu. Exam item: decide whether the reported activity at 10 µM for O=C(O)CCCCOc1ccc(CC(=O)Nc2ccc3c(c2)C(=O)N(Cc2ccc(F)cc2)C3=O)cc1 [Compound 5] is at least 90%.
Ans. NOT MET

Qu. And for O=C(O)CCCCCOc1ccc(CC(=O)Nc2ccc3c(c2)C(=O)N(Cc2ccc(F)cc2)C3=O)cc1 [Compound 14m] ?
Ans. NOT MET

Qu. And for O=C(O)CCCCOc1ccc(CC(=O)Nc2ccc3c(c2)C(=O)N(Cc2ccccc2)C3=O)cc1 [Compound 14e] ?
Ans. MET
